The measured values listed here are drawn from ChEMBL document CHEMBL5665443.

Record form. Attribute: inhibition. Fill in for each entry.
Experimental system: Uracil-DNA glycosylase (Homo sapiens);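 also: UNG excision on a quenched double-stranded DNA oligo probe, with APE1 added for strand incision and turnover, read as fluorescence at 594 nm as strands separate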
Experimental conditions: Compound Concentration 10.0 uM, Hit No
Description: Inhibition of UNG by quantifying inhibition of UNG-mediated cleavage and dissociation of quenched duplex DNA oligonucleotides, measured as fluorescence at 594 nm. To generate a functional strand incision and increase turn-over this assay is coupled to APE1.
Numeric answer only, unit % assumed.

Q: Sample CN1CCC[C@H]1c1cccnc1 — what was its inhibition?
Ans: -2.67

Q: Please answer likewise for CCOc1ccn(-c2ccc(F)cc2)c(=O)c1C(=O)Nc1ccc(Oc2ccnc(N)c2Cl)c(F)c1
Ans: 6.57

Q: One more molecule: CC1=C(C#N)C(c2ccc3[nH]nc(C)c3c2)C(C#N)=C(C)N1
Ans: 2.96

Q: Would you kindly repeat that for CCCCN(CCCC)C(=O)CN1C[C@@H](c2cc(OC)c3c(c2)OCO3)[C@H](C(=O)O)[C@H]1CC(C)(C)CCC ?
Ans: 4.65

Q: CCOc1cc(N2CCC(O)CC2)ccc1Nc1ncc2c(n1)N(C)c1ccccc1C(=O)N2C , same question.
Ans: 12.3

Q: Can you handle CC(=O)Nc1ccc(-c2cc(-c3ccccc3)nc3cc(C(=O)NCCCn4ccnc4)nn23)cc1 next?
Ans: 5.92

Q: What do you get for CCOc1ccccc1C(=O)NCC1(N2CCN(CC)CC2)CCCCC1 ?
Ans: -8.16

Q: Subsequent entry: c1ccc(C2CCN(c3cnc4c(N5CCOCC5)nccn34)CC2)cc1
Ans: 7.59

Q: Next molecule up: Cn1cc(-c2ccc3occ(-c4ccccc4-c4ccccc4)c3n2)cn1
Ans: 0.982

Q: Again, but for NC1(c2ccc(-c3nc4c(O)ccnn4c3-c3ccccc3)cc2)CCC1
Ans: -0.0214

* * *

Experimental system: Methyl-CpG-binding domain protein 4 (Homo sapiens) (UniProt O95243);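 also: MBD4 activity read as fluorescence at 594 nm from cleavage and release of a quenched duplex DNA oligonucleotide, with APE1 coupled to incise the strand and raise turnover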
Sequence (O95243 whole entry, the tested form may be a part): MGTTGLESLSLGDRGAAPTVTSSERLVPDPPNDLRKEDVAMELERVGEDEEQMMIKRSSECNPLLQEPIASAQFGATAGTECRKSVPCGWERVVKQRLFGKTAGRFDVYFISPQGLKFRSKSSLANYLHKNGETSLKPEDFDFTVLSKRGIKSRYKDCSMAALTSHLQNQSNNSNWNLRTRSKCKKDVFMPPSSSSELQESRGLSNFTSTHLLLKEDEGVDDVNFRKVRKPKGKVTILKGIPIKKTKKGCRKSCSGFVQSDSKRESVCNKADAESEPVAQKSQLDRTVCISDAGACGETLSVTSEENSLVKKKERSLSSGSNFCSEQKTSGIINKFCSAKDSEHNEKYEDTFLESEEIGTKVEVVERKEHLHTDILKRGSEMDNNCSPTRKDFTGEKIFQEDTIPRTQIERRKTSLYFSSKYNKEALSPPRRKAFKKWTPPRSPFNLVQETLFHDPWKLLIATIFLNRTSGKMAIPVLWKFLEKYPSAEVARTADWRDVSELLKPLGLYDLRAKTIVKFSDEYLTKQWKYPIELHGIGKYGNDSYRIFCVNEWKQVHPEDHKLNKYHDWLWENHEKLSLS
Experimental conditions: Compound Concentration 10.0 uM, Hit No
Description: Inhibition of MBD4 by quantifying inhibition of MBD4-mediated cleavage and dissociation of quenched duplex DNA oligonucleotides, measured as fluorescence at 594 nm. To generate a functional strand incision and increase turn-over this assay is coupled to APE1.
Assay readout: inhibition (%)
Express the result in % but write the number alone.

Q: State the recorded inhibition for this entry: Cc1cnc(-c2cc(Cl)ccc2F)cc1-n1c(=O)n(CC(N)=O)c2cnccc21
Ans: 27.6

Q: How about this compound: Cn1cc(-n2cnc3c(NCc4nc5cc(Cl)c(Cl)cc5[nH]4)nc(N4CCOCC4)nc32)cn1
Ans: 6.19

Q: Same read-out for COc1cc(-c2cn([C@H]3CCc4ccccc4N(CC(F)(F)F)C3=O)nn2)ccc1-n1ccc(C)n1 ?
Ans: -5.88

Q: Same again, this time with O=C(Nc1ccc(Cl)cc1)N[C@@H](Cc1ccccc1)C(=O)N1CCCCC1
Ans: 27.2

Q: Subsequent entry: C[C@@H]1CN(c2nccc(Nc3ccc4c(c3)n(CCC(C)(C)O)c(=O)n4C)n2)C[C@H](C)C1(F)F
Ans: 56.2

Q: Entry C[C@@H]1C[C@H](C)CN(c2ncc(Cl)c(Nc3ccc4c(c3)cc(OC(C)(C)C(=O)O)c(=O)n4C)n2)C1 please
Ans: 73.2

Q: Thanks! And NS(=O)(=O)c1c(Cl)ccc(NC(=O)Nc2cccc(Cl)c2Cl)c1O ?
Ans: 14.2

Q: Could you do the same for COc1cc(-c2cn([C@H]3CCc4c(F)cccc4N(CC(F)(F)F)C3=O)nn2)ccc1-n1cnc(C)c1 , please?
Ans: 40

Q: Same lookup for CC(=O)Nc1ccc(-c2cc(-c3ccccc3)nc3cc(C(=O)NCCCn4ccnc4)nn23)cc1 , please.
Ans: 52.7

Q: Now give it for COc1ccc(-n2nc3c4ccccc4[nH]cc-3c2=O)cc1 too.
Ans: 1.12

Q: And O=C(N1CCS(=O)(=O)CC1)N1C[C@H](c2ccc(OC(F)(F)F)cc2)C[C@H](c2nc(C3CC3)no2)C1 ?
Ans: 55.6

Q: Same read-out for COc1ccccc1Nc1nc(-c2nn(Cc3c(F)cc(OCCCO)cc3F)c3ccccc23)ncc1OC ?
Ans: 57

Q: Param item: CC(C)(C)c1ccc(C(=O)Nc2cn3cc(-n4ccnc4)ccc3n2)cc1
Ans: 1.23

Q: Try the compound C[C@@H](C(N)=O)[C@H](N)c1nc2ccc(C(C)(C)C)cc2[nH]1
Ans: 10.2

Q: Could you do the same for CC[C@@H]1CN2C(=O)N(C)c3nc(-c4ccccc4)[nH]c3C2=N1 , please?
Ans: -6.99

Q: Lookup COc1ccc(COc2ccc(Cc3cnc(N)nc3N)cc2OC)cc1
Ans: 24.9

Q: Continue with CC(C)c1c(CN(C)C(C)Cc2ccccc2)n(C)n(-c2ccccc2)c1=O (centres undefined)
Ans: 64.9

Q: What do we get for Cc1c(C(=O)NC2CCCCC2)sc2nc3ccc(N)cc3n12 ?
Ans: 7.24

Q: // query: CCn1c(=O)c(C)cn(Cc2nnc(-c3ccc(F)c(O)c3F)s2)c1=O
Ans: 53.9
